Data provenance is paper PMC5421785.

# test_target: HLA-DRB1*01:01 (Homo sapiens, UniProt P01903+P01911, A100R/D57E/F55L/F60I/F76Y/I96L/L162R/M171V/P40L/Q125E/R42F/V115G/Y59C)
# Construct: EBV transformed homozygous cell lines were used as sources of MHC molecules; endogenous in cells; host or cells: EBV transformed homozygous cell lines
# measurement_notes: HLA class II peptide binding, inhibition of radiolabeled peptide binding to purified MHC
# applied_conditions: citrullinated 15-mer peptide (X = citrulline); purified HLA-DRB1*01:01; read-out: DRB1*01:01 binding capacity, Cit peptide (IC50 nM)
Square brackets hold non-standard residues; d marks the D form. Peptide text beside a SMILES is read from it. Cit = NC(=O)NCCC[C@H](N)C(=O)O
measured_attribute: IC50

CC[C@H](C)[C@H](NC(=O)[C@@H](NC(=O)[C@H](CCC(N)=O)NC(=O)CNC(=O)[C@H](CC(=O)O)NC(=O)[C@H](CCCNC(N)=O)NC(=O)[C@@H](NC(=O)[C@H](CCC(=O)O)NC(=O)[C@@H](NC(=O)[C@@H](N)[C@@H](C)O)C(C)C)[C@@H](C)O)C(C)C)C(=O)N[C@@H](CC(N)=O)C(=O)N[C@@H](CCC(=O)O)C(=O)N[C@H](C(=O)N[C@@H](CO)C(=O)N[C@@H](CCC(N)=O)C(=O)O)[C@@H](C)O [TVETXDGQVINETSQ] (H-TVET[Cit]DGQVINETSQ-OH) | 7860 nM

Data request: # get_value(readout='IC50', item= CC(C)[C@H](NC(=O)[C@H](CCCNC(N)=O)NC(=O)CNC(=O)[C@H](C)NC(=O)[C@H](C)NC(=O)CNC(=O)[C@@H]1CCCN1C(=O)[C@H](Cc1ccccc1)NC(=O)CNC(=O)[C@@H](N)[C@@H](C)O)C(=O)NCC(=O)N1CCC[C@H]1C(=O)N1CCC[C@H]1C(=O)NCC(=O)N[C@@H](CO)C(=O)O [TGFPGAAGXVGPPGS] (H-TGFPGAAG[Cit]VGPPGS-OH) )
Data returned: 3470 nM

----------
# test_target: HLA-DRB1*04:01 (Homo sapiens, UniProt P01903+P01911, A100K/A169T/F76Y/I96L/K127E/L162R/M171V/N62H/P40V/Q125Y/R42H/S133A/S149N/S66Y/V115G/V209L/W38E)
# Construct: EBV transformed homozygous cell lines were used as sources of MHC molecules; endogenous in cells; host or cells: EBV transformed homozygous cell lines
# measurement_notes: HLA class II peptide binding, inhibition of radiolabeled peptide binding to purified MHC
# applied_conditions: citrullinated 15-mer peptide (X = citrulline); purified HLA-DRB1*04:01; read-out: DRB1*04:01 binding capacity, Cit peptide (IC50 nM)
Square brackets hold non-standard residues; d marks the D form. Peptide text beside a SMILES is read from it. Cit = NC(=O)NCCC[C@H](N)C(=O)O
measured_attribute: log10 IC50 (log10 of the value in nM)
All values: log10 IC50 [nM].

CC[C@H](C)[C@H](NC(=O)CN)C(=O)N[C@H](C(=O)NCC(=O)N[C@@H](CC(C)C)C(=O)N1CCC[C@H]1C(=O)NCC(=O)N[C@@H](CCC(N)=O)C(=O)N[C@@H](CCCNC(N)=O)C(=O)NCC(=O)N[C@@H](CCC(=O)O)C(=O)N[C@@H](CCCNC(=N)N)C(=O)NCC(=O)N[C@@H](Cc1ccccc1)C(=O)N1CCC[C@H]1C(=O)O)C(C)C [GIVGLPGQXGERGFP] (H-GIVGLPGQ[Cit]GERGFP-OH) | 3.31
CC(C)[C@H](NC(=O)[C@H](CC(=O)O)NC(=O)CNC(=O)[C@H](CCCNC(N)=O)NC(=O)[C@@H](N)CC(=O)O)C(=O)NCC(=O)N[C@@H](CCC(=O)O)C(=O)N[C@@H](CCCCN)C(=O)NCC(=O)N1CCC[C@H]1C(=O)N[C@@H](CCC(=O)O)C(=O)NCC(=O)N[C@@H](C)C(=O)N1CCC[C@H]1C(=O)NCC(=O)O [DXGDVGEKGPEGAPG] (H-D[Cit]GDVGEKGPEGAPG-OH) | 4.52

Batch lookup, log10 IC50 per entry.
1. CC[C@H](C)[C@H](N)C(=O)N[C@@H](CO)C(=O)N[C@@H](CC(C)C)C(=O)N1CCC[C@H]1C(=O)N[C@@H](CC(C)C)C(=O)N1CCC[C@H]1C(=O)N[C@@H](CC(N)=O)C(=O)N[C@@H](Cc1ccccc1)C(=O)N[C@@H](CO)C(=O)N[C@@H](CO)C(=O)N[C@@H](CC(C)C)C(=O)N[C@@H](CC(N)=O)C(=O)N[C@@H](CC(C)C)C(=O)N[C@@H](CCCNC(N)=O)C(=O)N[C@@H](CCC(=O)O)C(=O)O
2. CC[C@H](C)[C@H](NC(=O)CN)C(=O)N[C@H](C(=O)NCC(=O)N[C@@H](CC(C)C)C(=O)N1CCC[C@H]1C(=O)NCC(=O)N[C@@H](CCC(N)=O)C(=O)N[C@@H](CCCNC(=N)N)C(=O)NCC(=O)N[C@@H](CCC(=O)O)C(=O)N[C@@H](CCCNC(N)=O)C(=O)NCC(=O)N[C@@H](Cc1ccccc1)C(=O)N1CCC[C@H]1C(=O)O)C(C)C [GIVGLPGQRGEXGFP] (H-GIVGLPGQRGE[Cit]GFP-OH)
3. CC[C@H](C)[C@H](NC(=O)CNC(=O)[C@H](CCCNC(N)=O)NC(=O)[C@H](CCC(N)=O)NC(=O)CNC(=O)[C@H](C)NC(=O)[C@@H](N)CC(C)C)C(=O)N[C@H](C(=O)NCC(=O)N[C@@H](CC(C)C)C(=O)N1CCC[C@H]1C(=O)NCC(=O)N[C@@H](CCC(N)=O)C(=O)N[C@@H](CCCNC(=N)N)C(=O)NCC(=O)O)C(C)C [LAGQXGIVGLPGQRG] (H-LAGQ[Cit]GIVGLPGQRG-OH)
4. CC[C@H](C)[C@H](NC(=O)[C@H](CCCNC(N)=O)NC(=O)[C@H](CO)NC(=O)[C@H](CCC(=O)O)NC(=O)[C@H](CCC(=O)O)NC(=O)CN)C(=O)N[C@@H](CO)C(=O)N[C@@H](CC(C)C)C(=O)N1CCC[C@H]1C(=O)N[C@@H](CC(C)C)C(=O)N1CCC[C@H]1C(=O)N[C@@H](CC(N)=O)C(=O)N[C@@H](Cc1ccccc1)C(=O)N[C@@H](CO)C(=O)N[C@@H](CO)C(=O)O [GEESXISLPLPNFSS] (H-GEES[Cit]ISLPLPNFSS-OH)
5. CC(C)C[C@H](NC(=O)[C@H](CO)NC(=O)[C@H](CO)NC(=O)[C@H](Cc1ccccc1)NC(=O)[C@H](CC(N)=O)NC(=O)[C@@H]1CCCN1)C(=O)N[C@@H](CC(N)=O)C(=O)N[C@@H](CC(C)C)C(=O)N[C@@H](CCCNC(N)=O)C(=O)N[C@@H](CCC(=O)O)C(=O)N[C@H](C(=O)N[C@@H](CC(N)=O)C(=O)N[C@@H](CC(C)C)C(=O)N[C@@H](CC(=O)O)C(=O)N[C@@H](CO)C(=O)O)[C@@H](C)O [PNFSSLNLXETNLDS] (H-PNFSSLNL[Cit]ETNLDS-OH)

Data returned:
1: 3.65; 2: 3.76; 3: 4.02; 4: 3.92; 5: 3.29
